Recorded values, source the RNAGym collection of RNA variant scans (doi:10.7554/elife.80360).

Catalogue of self-cleavage values
B1: HDV Ribozyme (parent)
chain: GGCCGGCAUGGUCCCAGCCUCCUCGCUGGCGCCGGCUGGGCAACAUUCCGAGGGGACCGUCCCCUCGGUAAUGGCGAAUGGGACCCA

# Variants of: B1
# measurementDescription: self-cleavage, relative activity (ratio to wild type); higher = more cleavage; co-transcriptional

sequenceEntry: GGCCGGCAUGGUCCCAGCCUCCUCGCUGGCGCCGGGUGGGCAACAUUCCGAGGGGACCGUCCCCUCGGUAAUGGCGAAUGGGACCAA [C36G C86A]
self-cleavage: 0.181

sequenceEntry: GGCCGGCAUGGUCCCAGACUCCUCGCUGGCGCCGGCUGGGCAACAUUCCGAGGGGACCGUCCCCUCGGUAAUGGCGAAUGGGACCCC [C18A A87C]
self-cleavage: 0.134

sequenceEntry: GGCCGGCAUGGUCCCAGGCUCCUCGCUGGCGCCGGCUGGGCAACAUUCCGCGGGGACCGUCCCCUCGGUAAUGGCGAAUGGGACCCA [C18G A51C]
self-cleavage: 0.208

sequenceEntry: GGCCGGCAUGGUCCCAGCCUCCUCGCUGGCGCCGGCUGGACAACAUUUCGAGGGGACCGUCCCCUCGGUAAUGGCGAAUGGGACCCA [G40A C48U]
self-cleavage: 0.793

sequenceEntry: GGCCGGCAUGGUCCCAGCCUCCUCGCUGGCGCCGGCUGGGCAACAUUCCGAGGGGACCGUCCCUUCGGUAAUGGCGAAUGGGAGCCA [C64U C84G]
self-cleavage: 0.869

sequenceEntry: GGCCGGCAUGGUCCCAGCCUCCUCGCUGGCGGCGGCUGGGCAACAUUCCGAGGGGACCGUCCCCUCGGAAAUGGCGAAUGGGACCCA [C32G U69A]
self-cleavage: 0.148

sequenceEntry: GGCCGGCAUGGUCCCAGCCUCCUCGCUGGCGCCGGCAGGGCAACAUUCCGAGGGCACCGUCCCCUCGGUAAUGGCGAAUGGGACCCA [U37A G55C]
self-cleavage: 0.299

sequenceEntry: GGCCGGCAUGGUCCCAGCCUCCUCGCUGGCACCGGCUGGGCAACAUUCCGAGGGGACCGUCCCCUCGGUAAUGGCGAUUGGGACCCA [G31A A78U]
self-cleavage: 0.175

sequenceEntry: GGCCGGCAUGGUCCCAGCCUCCUCGCUGGCGCCGGCUGGGCAAGAUUCCGAGGGGACCGUCCCCUCGGUAAUGGCGAAUCGGACCCA [C44G G80C]
self-cleavage: 0.0405

sequenceEntry: GGCCGGCAUAGUCCCAGCCUCCUCGCUGGCGCCGGCUGGGCAACAUUCCGAGGGGACCGGCCCCUCGGUAAUGGCGAAUGGGACCCA [G10A U60G]
self-cleavage: 0.748

sequenceEntry: GGCCGGCAUGGUCCCAGCCUCCUCGUUGGCGCCGGAUGGGCAACAUUCCGAGGGGACCGUCCCCUCGGUAAUGGCGAAUGGGACCCA [C26U C36A]
self-cleavage: 0

sequenceEntry: GGCCGGCAUGGUCCCAUCCUCCUCGCUGGCGCCGGCUGGGCAACUUUCCGAGGGGACCGUCCCCUCGGUAAUGGCGAAUGGGACCCA [G17U A45U]
self-cleavage: 0.244

sequenceEntry: GGCCGGCAUGGUCCCAGCCUCCUCGCUGGCGCCGGCUGGGCAACAUACCGAGGGGACCGUCCCCUCGGUAAUGGCGAAUGGGAACCA [U47A C84A]
self-cleavage: 0.808

sequenceEntry: GGCCGGCAUGGUCCCAGCCUCCUCGCUGGCGCCGGCUGGGCAAAAUUCCGAGGGGACCGUCCCCUCGGUAAUCGCGAAUGGGACCCA [C44A G73C]
self-cleavage: 0.696

sequenceEntry: GGCCGGCAUGGUCCCAGCCUCCUCGCUGGCGCCGGCUGGGCAACAUUCCGAGGGGGCAGUCCCCUCGGUAAUGGCGAAUGGGACCCA [A56G C58A]
self-cleavage: 1.12

sequenceEntry: GGCCGGCAUGGUCCCAGCCUCCUCGCUGGCGCCGGCUGGGCAACAUUCCGAGGGGACCGGCCCCUCGCUAAUGGCGAAUGGGACCCA [U60G G68C]
self-cleavage: 0.965

sequenceEntry: GGCCGGCAUGGUCGCAGCCUCCUCGCUGGCGCCGGCUGGGCAACAUUCCGAGGGGAACGUCCCCUCGGUAAUGGCGAAUGGGACCCA [C14G C57A]
self-cleavage: 0.748

sequenceEntry: GGCCGGCAUGGUCCCAGCCUCCUCACUGGCGCCGGCUGGGCAACAUUCCGAGGGGACCGUCCCCUCGGUAAUGGCGAAUGGGAUCCA [G25A C84U]
self-cleavage: 0.173

sequenceEntry: GGCCGGCAUGGUCCCCGCCUCCUCGCUGGCGCCGGCUGGGCAACAUUCCGAGGGGACCGUCCCCUCGGUAAUGGCCAAUGGGACCCA [A16C G76C]
self-cleavage: 0.731

sequenceEntry: GGCCGGCAUGGUCCCAGCCUCCUCGCUGGCGCCGGCUGGGCAACAUUCUGAGGGGGCCGUCCCCUCGGUAAUGGCGAAUGGGACCCA [C49U A56G]
self-cleavage: 1.04

sequenceEntry: GGUCGGCAUGGUCCCAGCCUCCUCGCUGGCGCCGGCUGGGCAACAUUCCGAGGGGACCGUCCCCUCGGUAAUGGCGAAUGUGACCCA [C3U G81U]
self-cleavage: 0.187

sequenceEntry: GGCCGGCAUGGUCCCAGCCUCCGCGCUGGCGCCGGCUGGGCAACAUCCCGAGGGGACCGUCCCCUCGGUAAUGGCGAAUGGGACCCA [U23G U47C]
self-cleavage: 0.332
